# experimental-target: CD3ε homodimer protein (human, UniProt P07766 23-126, limits assumed)
# Sequence (P07766 23-126 limits assumed): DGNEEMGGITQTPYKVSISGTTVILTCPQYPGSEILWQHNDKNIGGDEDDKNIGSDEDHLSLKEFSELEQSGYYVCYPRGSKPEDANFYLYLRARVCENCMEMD
# experiment: SPR, immobilized CD3ε homodimer;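 also: biacore T200 surface plasmon resonance at 25 °C, antibody variants flowed as analytes over amine-coupled CD3ε homodimer on a CM4 chip, variant binding amount divided by that of GLS3000 antibody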
quantity-name: ratio of amounts bound (vs GLS3000)
Give your answer as a number; write no unit.

Consider the following illustrative entries.
GLS3000 S27eF (antibody, name in Kabat numbering, V domains shown, one-arm format as m2) VH: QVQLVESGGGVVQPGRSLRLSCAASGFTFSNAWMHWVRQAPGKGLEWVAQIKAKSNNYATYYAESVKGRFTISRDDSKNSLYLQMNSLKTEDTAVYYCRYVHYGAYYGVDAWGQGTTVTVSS VL: DIVMTQSPLSLPVTPGEPASISCRSSQSLVHFNRNTYLHWYQQKPGQAPRLLIYKVSNRFSGVPDRFSGSGSGTDFTLKISRVEAEDVGVYYCGQGTQVPYTFGQGTKLEIK = 1.32
GLS3000 T92S (antibody, name in Kabat numbering, V domains shown, one-arm format as m2) VH: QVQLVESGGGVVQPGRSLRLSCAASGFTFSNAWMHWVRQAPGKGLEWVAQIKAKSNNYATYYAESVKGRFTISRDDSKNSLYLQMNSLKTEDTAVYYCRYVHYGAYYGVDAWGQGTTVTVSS VL: DIVMTQSPLSLPVTPGEPASISCRSSQSLVHSNRNTYLHWYQQKPGQAPRLLIYKVSNRFSGVPDRFSGSGSGTDFTLKISRVEAEDVGVYYCGQGSQVPYTFGQGTKLEIK = 0.96
GLS3000 N30M (antibody, name in Kabat numbering, V domains shown, one-arm format as m2) VH: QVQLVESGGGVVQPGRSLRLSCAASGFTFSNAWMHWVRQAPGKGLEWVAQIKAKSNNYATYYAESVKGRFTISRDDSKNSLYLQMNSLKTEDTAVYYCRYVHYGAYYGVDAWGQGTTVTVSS VL: DIVMTQSPLSLPVTPGEPASISCRSSQSLVHSNRMTYLHWYQQKPGQAPRLLIYKVSNRFSGVPDRFSGSGSGTDFTLKISRVEAEDVGVYYCGQGTQVPYTFGQGTKLEIK = 0.8
GLS3000 R54E (antibody, name in Kabat numbering, V domains shown, one-arm format as m2) VH: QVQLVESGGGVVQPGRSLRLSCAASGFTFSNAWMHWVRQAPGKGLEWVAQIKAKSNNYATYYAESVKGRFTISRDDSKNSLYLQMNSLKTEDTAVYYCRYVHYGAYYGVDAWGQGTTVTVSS VL: DIVMTQSPLSLPVTPGEPASISCRSSQSLVHSNRNTYLHWYQQKPGQAPRLLIYKVSNEFSGVPDRFSGSGSGTDFTLKISRVEAEDVGVYYCGQGTQVPYTFGQGTKLEIK = 0.58

Consider the record given below.
What value of ratio of amounts bound (vs GLS3000) has been reported for the following binder? GLS3000 S27aD (antibody, name in Kabat numbering, V domains shown, one-arm format as m2) VH: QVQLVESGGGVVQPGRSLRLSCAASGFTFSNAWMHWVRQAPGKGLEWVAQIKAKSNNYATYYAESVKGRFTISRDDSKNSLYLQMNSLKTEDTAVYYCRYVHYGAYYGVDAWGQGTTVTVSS VL: DIVMTQSPLSLPVTPGEPASISCRSSQDLVHSNRNTYLHWYQQKPGQAPRLLIYKVSNRFSGVPDRFSGSGSGTDFTLKISRVEAEDVGVYYCGQGTQVPYTFGQGTKLEIK
0.79
